# Procedure Details: Clearance in human liver microsome at 10 mM measured after 15 mins in presence of NADPH by LC-MS analysis
# Format: ADME
# Condition Info: liver microsomes, read-out: CLH
Value Kind: microsomal CLint at […], 10000 µM (µL/min/mg)
Please state the figure in µL/min/mg; there is no need to write the unit.

Find the recorded microsomal CLint at […], 10000 µM belonging to "COCCOc1cc(NC(=O)N2CCCc3cc(CN4CCN(C)CC4=O)c(C=O)nc32)ncc1C#N" and report it.
29

----------
# Procedure Details: Half life in human liver S9 fraction at 1 uM in presence of NADPH incubated upto 120 mins by LC-MS/MS analysis
# Assay type: ADME, subcellular
Value Kind: half-life at 1 µM

So what does the record say about half-life at 1 µM for "COCCOc1cc(NC(=O)N2CCCc3cc(CN4CCN(C)CC4=O)c(C=O)nc32)ncc1C#N" ?
> 2 h
